molecular target: VEEV p62-E1 (Venezuelan equine encephalitis virus, TrD strain); assay: surface plasmon resonance (Biacore T200), […]
MEASURE: pKd
Note on units: pKd is unitless, being -log10 of a concentration expressed in mol/L.

**Q:** What measured pKd is associated with HRV-cleaved monovalent LDLRAD3(D1) (from UniProt A2AR95 18-70) (receptor) on VEEV p62-E1 (Venezuelan equine encephalitis virus, TrD strain)?
**A:** 6.68
